Ref: PubChem BioAssay (NCATS)

methodNotes: qHTS assay for measurement of the activity of small molecule inhibitors on Zika virus induced Caspase-3 activity in human iPSC derived neural progenitor cells (hNPCs) (AID 1224857); further: nearly all actives have a fitted effect of over 65% in size
testParameters: hNPCs ZIKV-induced caspase-3/7, Caspase-Glo luminescence, 6 h; series mostly up to 45.7 µM
Results filed as inconclusive are left out. The source made the active and inactive calls. The call rests on the fitted dose curve; in most records, active means well fitted inhibition curve with a large enough effect; inconclusive means small, poorly fitted or top-dose-only effect; inactive means no such curve, though single readings can be large or run the other way.
Output constraint: value belongs to active, inactive

Some entries whose results are on file:
>>> classname("CC1(C)OC2=C(C(=O)c3ccccc3C2=O)[C@H](NCc2ccccc2)[C@H]1O")
"active"
>>> classname("CCN(CC)CCCCNc1ncc2cc(-c3cc(OC)cc(OC)c3)c(NC(=O)NC(C)(C)C)nc2n1")
"inactive"
>>> classname("CCN1CCN(Cc2ccc(-c3cc4c(N[C@H](C)c5ccccc5)ncnc4[nH]3)cc2)CC1")
"inactive"
>>> classname("C=CCn1c(=O)c2cnc(Nc3ccc(N4CCN(C)CC4)cc3)nc2n1-c1cccc(C(C)(C)O)n1")
"inactive"
>>> classname("CN(C)Cc1c(C(=O)NCCOc2ccc(C(=O)NO)cc2)oc2ccccc12")
"inactive"

In: Dear all, I need the recorded test outcome for CNc1nccc(-c2cccnc2Oc2cc(C(=O)Nc3cccc(C(F)(F)F)c3)ccc2C)n1 , thank you.
Out: inactive

In: Dear all, I need the recorded test outcome for O=C(O)[C@H](Cc1c[nH]c2ccccc12)N1C(=O)c2ccccc2C1=O , thank you.
Out: inactive

In: Dear all, I need the recorded test outcome for C=CC(=O)N1CCC[C@@H](n2nc(-c3ccc(Oc4ccccc4)cc3)c3c(N)ncnc32)C1 , thank you.
Out: inactive

###

methodNotes: qHTS of pediatric cancer cell lines to identify multiple opportunities for drug repurposing: Confirmatory screen for Rh41 cells (AID 1347123);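 further: potency means the concentration at half of the fitted maximal effect; 48 h compound exposure; nearly all actives have a fitted effect of over 60% in size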
testParameters: Rh41 rhabdomyosarcoma cells, viability/cytotoxicity qHTS; series mostly up to 45.9 µM
Inconclusive results are not listed. Activity calls are given as the source filed them. Calls come from the whole dose curve; as a rule, active = well fitted cell-killing curve with a large enough effect; inconclusive = small, poorly fitted or top-dose-only effect; inactive = no such curve, though single readings can be large or run the other way.
This section presents molecules with their documented Potency values.

Solved entries:
>>> experimentalvalue("CC(C)(C)c1cc(NC(=O)Nc2ccc(-c3cn4c(n3)sc3cc(OCCN5CCOCC5)ccc34)cc2)no1")
"13.1 µM (active)"
>>> experimentalvalue("Nc1cc(C(F)(F)F)c(-c2cc(N3CCOCC3)nc(N3CCOCC3)n2)cn1")
"5.85 µM (active)"
>>> experimentalvalue("CN1CCN(Cc2ccc(NC(=O)Nc3ccc(Oc4cc(NC(=O)C5CC5)ncn4)cc3)cc2C(F)(F)F)CC1")
"0.233 µM (active)"

In: Name the recorded Potency for CCn1cc(-c2ccnc3[nH]c(-c4cccc(CN(C)C)c4)cc23)c(-c2ccc(NC(=O)N(C)C)cc2)n1 .
Out: 1.85 µM (active)

###

methodNotes: qHTS of pediatric cancer cell lines to identify multiple opportunities for drug repurposing: Primary screen for DAOY cells (AID 1347090); further: nearly all actives have a fitted effect of over 55% in size
testParameters: DAOY medulloblastoma viability, CellTiter-Glo luminescence, 48 h; series mostly up to 46 µM
Results filed as inconclusive are left out. The source made the active and inactive calls. The call rests on the fitted dose curve; in most records, active means well fitted cell-killing curve with a large enough effect; inconclusive means small, poorly fitted or top-dose-only effect; inactive means flat fitted curve, though single readings scatter.
Output constraint: value belongs to active, inactive

>>> classname("CCCn1c(=O)c2[nH]c(-c3cnn(Cc4cccc(C(F)(F)F)c4)c3)nc2n(CC)c1=O")
"inactive"
>>> classname("CN1c2cc(O)c(N=NC(N)=O)cc2CC1S(=O)(=O)O (stereo not given)")
"inactive"
>>> classname("COC(=O)Nc1nc2ccc(C(=O)c3ccc(F)cc3)cc2[nH]1")
"active"
>>> classname("Nc1ccccc1NC(=O)c1ccc(CNC(=O)OCc2cccnc2)cc1")
"active"
>>> classname("COc1ccc(CC2SC(=O)NC2=O)cc1C(=O)NCc1ccc(C(F)(F)F)cc1 (stereo not given)")
"inactive"
>>> classname("Cc1cc(C(=O)N2CCN(c3cccc(Cl)c3)CC2)n(-c2ccccc2)n1")
"active"
>>> classname("COc1cccc2nc(-c3cccs3)nc(NN3C(=O)C=C(C)C3=O)c12")
"active"
>>> classname("CC1=C(CO)C(=O)O[C@@H]([C@@H](C)[C@H]2CC[C@H]3[C@@H]4C[C@H]5O[C@]56[C@@H](O)C=CC(=O)[C@]6(C)[C@@H]4CC[C@]23C)C1")
"active"
>>> classname("NCC(=O)Nc1ccc(-n2nc(C(F)(F)F)cc2-c2ccc3c(ccc4ccccc43)c2)cc1")
"active"
>>> classname("C1=CCOCc2cc(ccc2OCCN2CCCC2)Nc2nccc(n2)-c2cccc(c2)OCC1")
"active"

In: Dear all, I need the recorded test outcome for CC(C)(O)CCc1ccc(OCc2cc(-c3cccc(OC(F)F)c3)c3ncccc3c2)cc1 , thank you.
Out: inactive

In: Dear all, I need the recorded test outcome for Cc1cc(Nc2cc(N3CCN(C)CC3)nc(C=Cc3ccccc3)n2)n[nH]1 , thank you.
Out: active

In: Dear all, I need the recorded test outcome for CC(C)CC(=O)Nc1n[nH]c2c1CN(C(=O)C1CCN(C)CC1)C2(C)C , thank you.
Out: active

In: Dear all, I need the recorded test outcome for Nc1ncnc2c1c(-c1cnc3[nH]ccc3c1)nn2C1CCCC1 , thank you.
Out: active

In: Dear all, I need the recorded test outcome for c1nc2nc(Nc3ccc(N4CCOCC4)cc3)nc(NC3CCCCC3)c2[nH]1 , thank you.
Out: active

In: Dear all, I need the recorded test outcome for COc1cc2nccc(Oc3ccc(NC(=O)C4(C(=O)Nc5ccc(F)cc5)CC4)cc3)c2cc1OC , thank you.
Out: active

In: Dear all, I need the recorded test outcome for CC1COC2(CCN(c3nc(=O)c4cc(C(F)(F)F)cc([N+](=O)[O-])c4s3)CC2)O1 (stereo not given) , thank you.
Out: inactive

In: Dear all, I need the recorded test outcome for COCCOc1ccc2c(c1)ncn2-c1ccc2cccc(N3CCC(N)CC3)c2n1 , thank you.
Out: active

In: Dear all, I need the recorded test outcome for CC(=O)SC[C@@H](C)C(=O)N1CCC[C@H]1C(=O)N[C@@H](Cc1ccccc1)C(=O)O , thank you.
Out: inactive

In: Dear all, I need the recorded test outcome for CC[C@@]1(O)C(=O)OCc2c1cc1n(c2=O)Cc2cc3cc(O)ccc3nc2-1 , thank you.
Out: active

###

methodNotes: Quantitative High-Throughput drug screen in 47 multiple myeloma cell lines against the NCATS MIPE library collection: U266_ATCC cell viability assay (AID 1919864); further: potency means the concentration at half of the fitted maximal effect; nearly all actives have a fitted effect of over 35% in size
testParameters: U266 myeloma viability, CellTiter-Glo ATP luminescence, 48 h; series mostly up to 45.8 µM
Inconclusive results are not listed. The source made the active and inactive calls. Calls come from the whole dose curve; as a rule, active = well fitted cell-killing curve with a large enough effect; inconclusive = small, poorly fitted or top-dose-only effect, or effect the other way; inactive = no such curve, though single readings can be large or run the other way.
Output constraint: value belongs to active, inactive

>>> classname("COCCOc1ccc2c(c1)ncn2-c1ccc2cccc(N3CCC(N)CC3)c2n1")
"active"

In: Dear all, I need the recorded test outcome for CC(C)C[C@H](NC(=O)CNC(=O)c1cc(Cl)ccc1Cl)B(O)O , thank you.
Out: active

In: Dear all, I need the recorded test outcome for CC[C@@]1(O)C(=O)OCc2c1cc1n(c2=O)Cc2cc3cc(O)ccc3nc2-1 , thank you.
Out: active

In: Dear all, I need the recorded test outcome for CCCCCN(CCC12CC3CC(CC(C3)C1)C2)C(=O)NCCCc1ccncc1 , thank you.
Out: active

In: Dear all, I need the recorded test outcome for O=C(NC1CCNCC1)c1[nH]ncc1NC(=O)c1c(Cl)cccc1Cl , thank you.
Out: active

In: Dear all, I need the recorded test outcome for O=C(O)c1ccc2c(c1)nc(Nc1cccc(Cl)c1)c1ccncc12 , thank you.
Out: active

In: Dear all, I need the recorded test outcome for COc1cc(C)c(Sc2cnc(NC(=O)c3ccc(CNC(C)C(C)C)cc3)s2)cc1C(=O)N1CCN(C(C)=O)CC1 (stereo not given) , thank you.
Out: active

In: Dear all, I need the recorded test outcome for CCCCOc1c(C(=O)c2c(F)cc(C)cc2F)cnc2n[nH]cc12 , thank you.
Out: active

###

This section presents compounds with their documented max response values.
methodNotes: qHTS Assay for Identifying Gametocytocidal Compounds (AID 743244);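 further: on the % scale 0 is the no-effect control and ±100 the full control effect; actives lower the fluorescent signal which means gametocytes are killed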
testParameters: P. falciparum 3D7 stage III-V gametocytes, alamarBlue, 72 h; stronger effect = lower value
Results filed as inconclusive are left out.
Give your result in % as a bare value.

Solved entries:
>>> experimentalvalue("CCC(=C(c1ccccc1)c1ccc(OCCN(C)C)cc1)c1ccccc1")
-26.2
>>> experimentalvalue("CNc1nccc(-c2cccnc2Oc2cc(C(=O)Nc3cccc(C(F)(F)F)c3)ccc2C)n1")
8.44
>>> experimentalvalue("CC(C)(C)c1cc(C(C)(C)C)c(NC(=O)c2c[nH]c3ccccc3c2=O)cc1O")
7.52

In: Name the recorded max response for COc1ccc(CC2c3cc(OC)c(OC)cc3CC[N+]2(C)CCC(=O)OCCCCCOC(=O)CC[N+]2(C)CCc3cc(OC)c(OC)cc3C2Cc2ccc(OC)c(OC)c2)cc1OC (stereo not drawn) .
Out: 8.81

In: Name the recorded max response for C1Cc2[nH]nc(-c3nn[nH]n3)c2C1 .
Out: 38.3

In: Name the recorded max response for CC(=O)OCC(=O)[C@@]1(O)[C@H](C)C[C@H]2[C@@H]3C=C(C)C4=Cc5c(cnn5-c5ccccc5)C[C@]4(C)[C@@H]3[C@@H](O)C[C@@]21C .
Out: -18.2

In: Name the recorded max response for CNC(=O)c1cc(Oc2ccc(NC(=O)Nc3cc(C(C)(C)C)nn3-c3ccc4ncccc4c3)c(F)c2)ccn1 .
Out: -28.6

In: Name the recorded max response for CC(=O)SC[C@@H](C)C(=O)N1CCC[C@H]1C(=O)N[C@@H](Cc1ccccc1)C(=O)O .
Out: 7.13
